# TARGET_SYSTEM: T1, human TIM3, full length, on cells (human, UniProt Q8TDQ0 22-301)
# T1 construct: CHO-K1 cells were transfected with a plasmid for full-length human Tim3; other cells carry endogenous TIM3; also called huTIM-3; CHO-Tim3
# TEST_DETAILS: FACS, human CD14+ monocytes, donor3, 10 µg/ml
EXPERIMENTAL_READOUT: Specific Binding [MFI] (MFI)
Numbers only, in MFI.

1) anti-TIM3 antibody Tim3_0022 (antibody, V domains shown, Mouse monoclonal from hybridoma; also called <TIM-3> Ab(022)) VH: EVQLQESGPSLVKPSQTLSLTCSVTGDSIASAYWNWIRKFPGNKLEYMGYINYSGSTYYNPSLKSRISITRDTSQNQYYLQLNSVTTEDTATYYCVTGDYFDYWGRGTTLTVSS VL: DIQMTQSPSSLSAYLGGKVTITCKARQDVRKNIGWYQHKPGKGPRLLIWYTSTLQSGIPSRFSGSGSGRDYSFNINNLEPEDIATYYCLQYDNLPFTFGTGTKLEIR : 1240

List the reported Specific Binding [MFI] of each binder below.
1. anti-TIM3 antibody Tim3_0026 (antibody, V domains shown, Mouse monoclonal from hybridoma) VH: QIQLVQSGPELKKPGETVKISCKASGYTFTDYSMHWVKQAPGRGLKWMGYINTETYEPTFGADFKGRFAFSLDTSATTAYLQINSLKTEDTATFFCGGGGYPAYWGQGTVVIVSA VL: DVLMTQTPLSLPVSLGDQASISCRSSRTILHSSGNTYLEWYLQKPGQSPKLLIYKVSNRFSGVPDRFSGSGSGTDFTLNISRVEAEDLGVYYCFQDSHVPFTFGTGTKLEIK
2. anti-TIM3 antibody Tim3_0016 (antibody, V domains shown, Mouse monoclonal from hybridoma; also called clone 0016; Tim3_0016-A488) VH: QVTLKESGPGILQPSQTLRLTCSFSGFSLSTSGMSVGWIRQPSGKGLEWLAHIWLNDDVFFNPALKSRLTISKDTSNNQVFLQIASVVTADTATYYCVRANGYLYALDYWGQGTSVTVSS VL: QIVLTQSPAIMSASPGQKVTITCSASSSVNYTQWYQQKLGSSPKLWIYDAFKLAPGVPARFSGSGTGTSYSLTISSMEAEDAASYFCHQWSSYPWTFGGGTKLEIK

[900, 1690]
